Biological target: Neuronal acetylcholine receptor subunit alpha-7 (Homo sapiens)
Assay: Displacement of [3H]MLA from alpha-7 nACh receptor in human IMR32 cells
Sequence (P36544 whole entry): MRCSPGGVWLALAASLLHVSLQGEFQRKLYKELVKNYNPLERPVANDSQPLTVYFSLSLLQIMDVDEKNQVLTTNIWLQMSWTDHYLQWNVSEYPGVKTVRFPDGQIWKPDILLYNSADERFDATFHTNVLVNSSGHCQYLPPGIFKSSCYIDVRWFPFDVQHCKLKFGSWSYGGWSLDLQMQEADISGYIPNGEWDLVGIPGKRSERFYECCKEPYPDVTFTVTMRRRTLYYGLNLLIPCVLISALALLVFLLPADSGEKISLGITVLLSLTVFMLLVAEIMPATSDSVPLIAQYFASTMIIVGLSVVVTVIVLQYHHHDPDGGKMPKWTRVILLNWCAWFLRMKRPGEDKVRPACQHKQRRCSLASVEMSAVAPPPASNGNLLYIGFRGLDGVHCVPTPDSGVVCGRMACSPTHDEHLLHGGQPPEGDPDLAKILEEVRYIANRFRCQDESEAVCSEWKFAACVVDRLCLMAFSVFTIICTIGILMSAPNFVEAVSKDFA

{"entry.smiles": "O=C(N[C@@H]1C[C@H]2CCN(C2)C1)c1cc2ccoc2cn1", "experimental.system": "Neuronal acetylcholine receptor subunit alpha-7 (Homo sapiens)", "Ki": "9 nM"}

* * *

Target: Neuronal acetylcholine receptor subunit alpha-7 (Homo sapiens)
Test: Agonist activity at alpha7-5HT3 chimera expressed in human SH-EP1 cells by FLIPR assay
Sequence (P36544 23-502 limits assumed): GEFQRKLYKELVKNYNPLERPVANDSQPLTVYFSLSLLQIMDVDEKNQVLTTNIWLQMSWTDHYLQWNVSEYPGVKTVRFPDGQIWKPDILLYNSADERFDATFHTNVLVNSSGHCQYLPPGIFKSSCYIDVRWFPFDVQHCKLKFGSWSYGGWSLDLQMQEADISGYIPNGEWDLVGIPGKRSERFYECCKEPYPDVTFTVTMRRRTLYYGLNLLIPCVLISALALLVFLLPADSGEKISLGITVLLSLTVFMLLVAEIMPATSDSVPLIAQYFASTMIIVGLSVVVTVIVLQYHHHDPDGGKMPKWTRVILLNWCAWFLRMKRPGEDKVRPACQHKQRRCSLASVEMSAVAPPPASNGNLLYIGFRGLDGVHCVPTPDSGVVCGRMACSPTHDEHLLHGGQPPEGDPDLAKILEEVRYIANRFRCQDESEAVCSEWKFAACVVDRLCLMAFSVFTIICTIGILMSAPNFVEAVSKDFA
Item-by-item account of EC50

{"entry.smiles": "O=C(N[C@@H]1C[C@H]2CCN(C2)C1)c1cc2ccoc2cn1", "experimental.system": "Neuronal acetylcholine receptor subunit alpha-7 (Homo sapiens)", "EC50, nM": 46}
{"entry.smiles": "O=C(N[C@@H]1C[C@H]2CCN(C2)C1)c1ccc2c(c1)OCCO2", "experimental.system": "Neuronal acetylcholine receptor subunit alpha-7 (Homo sapiens)", "EC50, nM": 430}
{"entry.smiles": "O=C(N[C@@H]1C[C@H]2CCN(C2)C1)c1ccc2ncsc2c1", "experimental.system": "Neuronal acetylcholine receptor subunit alpha-7 (Homo sapiens)", "EC50, nM": 182}
{"entry.smiles": "O=C(N[C@H]1CN2CCC1CC2)c1ccc(Cl)cc1", "experimental.system": "Neuronal acetylcholine receptor subunit alpha-7 (Homo sapiens)", "EC50, nM": 128}
{"entry.smiles": "O=C(N[C@@H]1C[C@H]2CCN(C2)C1)c1cc2cccn2cn1", "experimental.system": "Neuronal acetylcholine receptor subunit alpha-7 (Homo sapiens)", "EC50, nM": 129}
{"entry.smiles": "O=C(N[C@@H]1C[C@H]2CCN(C2)C1)c1ccc2occc2c1", "experimental.system": "Neuronal acetylcholine receptor subunit alpha-7 (Homo sapiens)", "EC50, nM": 81}
{"entry.smiles": "O=C(N[C@@H]1C[C@H]2CCN(C2)C1)c1cc2sccc2cn1", "experimental.system": "Neuronal acetylcholine receptor subunit alpha-7 (Homo sapiens)", "EC50, nM": 70}
{"entry.smiles": "O=C(N[C@@H]1C[C@H]2CCN(C2)C1)c1ccc(Cl)cc1", "experimental.system": "Neuronal acetylcholine receptor subunit alpha-7 (Homo sapiens)", "EC50, nM": 190}

Value source: ChEMBL document CHEMBL1145564
